- Test system: SK-MEL-5
- assayName: Anticancer activity against human SK-MEL-5 cells assessed as cell growth at 10^-5 M after 48 hrs by SRB assay
- Format: functional
- conditionNotes: SK-MEL-5, 48 h, read-out: Activity
parameterMeasured: growth at 10 µM (%)

- COc1cccc(-c2nc3sccn3c2-c2ccnc(NCCNC(=O)c3ccc(N4CCOCC4)c(C(F)(F)F)c3)n2)c1: 57.2
- COc1cccc(-c2nc3sccn3c2-c2ccnc(NCCNC(=O)Nc3cccc(C(F)(F)F)c3)n2)c1: 51.5
- O=C(NCCNc1nccc(-c2c(-c3cccc(O)c3)nc3sccn23)n1)c1ccccc1: 40.2
- O=C(NCCNc1nccc(-c2c(-c3cccc(O)c3)nc3sccn23)n1)Nc1ccccc1: 69.3
- COc1cccc(-c2nc3sccn3c2-c2ccnc(NCCNC(=O)c3ccccc3)n2)c1: 55.3
- O=C(NCCNc1nccc(-c2c(-c3cccc(O)c3)nc3sccn23)n1)Nc1cccc(C(F)(F)F)c1: 53.5
- O=C(NCCNc1nccc(-c2c(-c3cccc(O)c3)nc3sccn23)n1)c1cccc(C(F)(F)F)c1: 52.6
- O=C(NCCNc1nccc(-c2c(-c3cccc(O)c3)nc3sccn23)n1)c1ccccc1O: 22.7
- O=C(NCCNc1nccc(-c2c(-c3cccc(O)c3)nc3sccn23)n1)Nc1cc(C(F)(F)F)cc(C(F)(F)F)c1: 59.7
